Parameter: Optimal pH. Scope: all listed entries.
experiment: Enzyme properties of AtLOG 1, 2, 3, 4, 5, 7 and 8 proteins having iPRMP as substrate; type: biochemical, Arabidopsis thaliana
The figure you give is taken to be in pH; do not add the unit.

molecule	Optimal pH (pH)
AtLOG5: Arabidopsis thaliana LOG homolog protein, gene At4g35190, amino acid sequence SEQ ID NO: 12, purified from E. coli (protein, listed as Arabidopsis sp.) MEIVKSRFKRVCVFCGSSSGKRECYSDAATDLAQELVTRRLNLVYGGGSIGLMGLVSQAVHEAGGHVLGIIPRTLMDKEITGETYGEVIAVADMHERKAEMARHSDCFIALPGGYGTLEELLEVIAWAQLGIHDKPVGLLNVDGYYNYLLTFIDKAVDDGFIKPSQRHIFVSAPNAKELVQKLEAYKPVNDGVIAKSRWEVEKKVQQPQQQQQVVFCSNTSMQTEIAL	5.4

Then this molecule:
Query Optimal pH for AtLOG3: Arabidopsis thaliana LOG homolog protein, gene At2g37210, amino acid sequence SEQ ID NO: 8, purified from E. coli (protein, listed as Arabidopsis sp.) MEIKGESMQKSKFRRICVFCGSSQGKKSSYQDAAVDLGNELVSRNIDLVYGGGSIGLMGLVSQAVHDGGRHVIGIIPKTLMPRELTGETVGEVRAVADMHQRKAEMAKHSDAFIALPGGYGTLEELLEVITWAQLGIHDKPVGLLNVDGYYNSLLSFIDKAVEEGFISPTAREIIVSAPTAKELVKKLEEYAPCHERVATKLCWEMERIGYSSEE
6.5
